- EXPERIMENTAL_TARGET: Adenosine receptor A3 (Homo sapiens, UniProt P0DMS8)
- PROTOCOL_TEXT: Binding affinity towards human adenosine A3 receptor expressed in HEK293 cells using [125I]AB-MECA at 1 uM
- Type: cell-based
ATTRIBUTE_MEASURED: Ki (µM)
Record the value in µM, omitting the unit from your answer.

Challenge: For the record "Cn1c(=O)c2[nH]c(C3CCCC3)nc2n(C)c1=O" , what value of Ki is listed for Adenosine receptor A3 (Homo sapiens, UniProt P0DMS8)?
Response given: 1.3

---
Challenge: For the record "O=c1n(-c2ccccc2)nc2c(NCC(c3ccccc3)c3ccccc3)nc3ccccc3n12" , what value of Ki is listed for Adenosine receptor A3 (Homo sapiens, UniProt P0DMS8)?
Response given: 1.02

###

- EXPERIMENTAL_TARGET: Adenosine receptor A1 (Bos taurus, UniProt P28190)
- Sequence (P28190 whole entry): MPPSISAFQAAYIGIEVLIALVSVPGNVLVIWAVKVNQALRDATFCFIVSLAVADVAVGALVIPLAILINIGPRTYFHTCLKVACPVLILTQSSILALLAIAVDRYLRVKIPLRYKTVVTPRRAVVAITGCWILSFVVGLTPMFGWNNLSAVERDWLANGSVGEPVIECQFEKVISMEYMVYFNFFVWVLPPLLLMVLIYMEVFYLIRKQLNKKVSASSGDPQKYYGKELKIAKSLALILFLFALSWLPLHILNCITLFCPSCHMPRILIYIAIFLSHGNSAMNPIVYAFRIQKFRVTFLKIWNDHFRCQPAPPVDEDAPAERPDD
- PROTOCOL_TEXT: Binding affinity towards adenosine A1 receptor of bovine brain membrane using [3H]-CHA at 20 uM
Reported pKi values for a set of molecules
In plain terms, pKi is the concentration in mol/L turned into minus its base-10 logarithm.

Challenge: Quick check: pKi of "O=c1n(-c2ccccc2)nc2c(NCC(c3ccccc3)c3ccccc3)nc3ccccc3n12" ?
Response given: 7.27

Attention now turns to another entry.
Challenge: Quick check: pKi of "Cn1c(=O)c2[nH]c(C3CCCC3)nc2n(C)c1=O" ?
Response given: 9.30

###

Reported Ki values for a set of compounds
- EXPERIMENTAL_TARGET: Adenosine receptor A3 (Homo sapiens, UniProt P0DMS8)
- Sequence (P0DMS8 whole entry): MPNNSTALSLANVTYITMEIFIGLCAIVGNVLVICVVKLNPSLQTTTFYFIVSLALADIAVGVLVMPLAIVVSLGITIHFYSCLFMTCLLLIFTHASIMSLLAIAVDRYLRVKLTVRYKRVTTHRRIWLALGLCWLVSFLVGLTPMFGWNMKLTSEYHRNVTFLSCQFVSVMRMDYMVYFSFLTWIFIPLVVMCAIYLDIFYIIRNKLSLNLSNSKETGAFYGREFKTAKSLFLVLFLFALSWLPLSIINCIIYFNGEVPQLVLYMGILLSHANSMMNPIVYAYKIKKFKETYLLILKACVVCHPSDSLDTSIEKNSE
- PROTOCOL_TEXT: Binding affinity towards human adenosine A3 receptor expressed in HEK293 cells in presence of [125I]-AB-MECA at a concentration of 1 uM
- Type: cell-based
Record the value in nM, omitting the unit from your answer.

Challenge: Quick check: Ki of "O=C(Cc1ccccc1)Nc1nc2ccccc2n2c(=O)n(-c3ccccc3)nc12" ?
Response given: 3.75

---
Challenge: Quick check: Ki of "O=c1[nH]c2ccccc2n2c(=O)n(-c3cccc(F)c3)nc12" ?
Response given: 63

Challenge: Quick check: Ki of "Cc1ccc(-n2nc3c(=O)n(C)c4ccccc4n3c2=O)cc1" ?
Response given: 504

###

Reported inhibition values for a set of molecules
- Test system: Adenosine receptor A2a (Bos taurus)
- PROTOCOL_TEXT: Binding affinity towards adenosine A2A receptor of bovine striatal membrane in presence of [3H]-CGS- at a concentration of 20 uM
Record the value in %, omitting the unit from your answer.

Challenge: Quick check: inhibition of "O=c1[nH]c2ccccc2n2c(=O)n(-c3cccc(F)c3)nc12" ?
Response given: 20

Challenge: Quick check: inhibition of "CCCn1c(=O)c2nn(-c3ccccc3)c(=O)n2c2ccccc21" ?
Response given: 44

Challenge: Quick check: inhibition of "Cc1ccc(-n2nc3c(=O)n(C)c4ccccc4n3c2=O)cc1" ?
Response given: 0

Challenge: Quick check: inhibition of "O=c1n(-c2ccc(Cl)cc2)nc2c(NC3CCCCC3)nc3ccccc3n12" ?
Response given: 0

Challenge: Quick check: inhibition of "Cc1ccc(-n2nc3c(=O)[nH]c4ccccc4n3c2=O)cc1" ?
Response given: 0

Attention now turns to another entry.
Challenge: Quick check: inhibition of "O=c1n(-c2ccccc2)nc2c(NCCCc3ccccc3)nc3ccccc3n12" ?
Response given: 61
